Attribution: patent US20250092065A1

- Tested on: HTT
- assay: HiBiT protein abundance assay, HTT (K562 HiBiT knock-in)
- Assay type: cell-based, human
- study-conditions: HiBiT knock-in K562 cells, 24 hours, top dose 10 μM
pIC50: −log10 of the molar value.
pIC50 reference

Some compounds with known pIC50 results, for comparison:
[[record]]
compound = "Cn1cc2cc(-c3ccc4cc(C5CCNCC5)c(F)cc4n3)c(O)cc2n1 [Compound 144]"
target_or_test_system = "HTT"
reading = "< 5.00"

[[record]]
compound = "Cc1c(O)c(-c2nc(C(N)=O)c3cc(N4CCNCC4)ccc3n2)cc2cn(C)nc12 [Compound 523]"
target_or_test_system = "HTT"
reading = "6.00 to 7.00"

[[record]]
compound = "CNC1CCN(c2ccc3nc(-c4cc(C#N)c5nc(C)cn5c4)ncc3n2)C1 (stereo not shown) [Compound 382]"
target_or_test_system = "HTT"
reading = "6.00 to 7.00"


Shift focus to the following entry.
Entry Cn1cc2cc(-c3ccc4nc(N5CC[C@H](N[C@H]6C[C@H](F)C6)C5)ccc4n3)c(O)c(F)c2n1 (single isomer, unassigned) [Compound 347] : reported pIC50 = ?
> 7.00

* * *

AC50 reference
- System: MYB mRNA
- assay: RT-qPCR splicing assay, MYB mRNA canonical (CJ) and alternative (AJ) junction
- Assay type: cell-based, human
- study-conditions: Homo sapiens, RT-qPCR, MYB alternative junction mRNA increase; read-out: MYB AJ (increase in alternative junction mRNA, AC50)
- Protocol: Compounds described herein were used to modulate RNA transcript abundance in cells. The expression of a target mRNA was measured by detecting the formation of an exon-exon junction in the canonical transcript (CJ). A compound mediated exon-inclusion event was detected by observing an increase in formation of a new junction with an alternative exon (AJ). Real-time qPCR assays were used to detect these splicing switches and interrogate the potency of various compounds towards different target genes. […]
Counter-ions that a name gives are not always drawn.

Some molecules with known AC50 results, for comparison:
[[record]]
molecule = "Cc1c(O)c(-c2ncc3cc(N4CCNC5(CC5)C4)ccc3n2)cc2cn(C)nc12"
measured_attribute = "AC50"
reading = "100 to 1000 nM"

[[record]]
molecule = "Cn1cc2cc(-c3ncc4cc(N5CC[C@H](NC(C)(C)C)C5)ccc4n3)c(O)c(F)c2n1"
measured_attribute = "AC50"
reading = "< 100 nM"

[[record]]
molecule = "Cc1cn2cc(-c3nc(C(=O)NC4CCC4)c4cc(N5C[C@@H](C)N[C@@H](C)C5)ccc4n3)cc(F)c2n1"
measured_attribute = "AC50"
reading = "< 100 nM"

[[record]]
molecule = "Cc1cn2cc(-c3ncc4cc(N5C[C@@H](C)N[C@@H](C)C5)ccc4n3)ccc2n1"
measured_attribute = "AC50"
reading = "1000 to 10000 nM"

[[record]]
molecule = "CCc1cn2cc(-c3ncc4cc(N5C[C@@H](C)N[C@@H](C)C5)ccc4n3)cc(F)c2n1"
measured_attribute = "AC50"
reading = "1000 to 10000 nM"


Entry C[C@H]1CN(c2ccc3nc(-c4cc(F)c5nn(C)cc5c4)ncc3c2)C[C@H](C)N1 : reported AC50 = ?
100 to 1000 nM

For CCc1nc2cc(O)c(-c3ccc4nc(N5CC[C@H](NC(C)(C)C)C5)ccc4n3)cc2o1 (single isomer, unassigned) then?
1000 to 10000 nM

For Cc1cn2nc(-c3ccc4cc(N5C[C@H](C)N[C@@H](C)C5)cc(F)c4n3)cc(C)c2n1 (single isomer, unassigned) then?
100 to 1000 nM

For C[C@H]1CN(c2cc(F)c3nc(-c4cc5cn(C)nc5cc4O)ccc3c2)C[C@H](C)N1 (single isomer, unassigned) then?
< 100 nM

For Cc1nc2c(F)cc(-c3ncc4cc(N5C[C@H](C)N[C@@H](C)C5)ccc4n3)cn2n1 [Compound 819, hydrochloride] then?
100 to 1000 nM

For C[C@H]1CN(c2ccc3nc(-c4cc5cn(C)nc5cc4O)ncc3c2)CC2(CC2)N1 (single isomer, unassigned) then?
100 to 1000 nM

For Cc1nc(-c2cc3cn(C)nc3cc2O)nc2ccc(N3C[C@H](C)N[C@@H](C)C3)cc12 (single isomer, unassigned) then?
100 to 1000 nM

For Cc1nc(-c2cc3cn(C)nc3c(C)c2O)nc2ccc(N3C[C@@H](C)N[C@@H](C)C3)cc12 then?
100 to 1000 nM

For Cc1c(O)c(-c2ncc3cc(N4C[C@@H](C)NC5(CC5)C4)ccc3n2)cc2cn(C)nc12 (single isomer, unassigned) then?
< 100 nM

* * *

- Test system: K562 cells
- assay: Cell Titer Glo 2.0 cell viability (toxicity) assay, K562
- study-conditions: 500 cells/well, 72 hours
measured-attribute: Effect of Exemplary Compounds on Cell Viability, K562

[[record]]
molecule = "Cn1cc2cc(-c3ccc4nc(N5CCC(NC6(CF)CC6)C5)ccc4n3)c(O)c(F)c2n1 (stereo in doubt) [Compound 353]"
reading = "A (A represents <100 nM)"

[[record]]
molecule = "Cc1nc2c(F)c(O)c(-c3ccc4nc(N5CC[C@@H](NC6(C)CC6)C5)ccc4n3)cc2o1 (stereo in doubt) [Compound 326]"
reading = "A (A represents <100 nM)"

[[record]]
molecule = "Cc1nc2cc(O)c(-c3ccc4nc(N5CCC(N)C5)ccc4n3)cc2o1 (stereo not shown) [Compound 234]"
reading = "A (A represents <100 nM)"


* * *

- Test system: Target C
- assay: RT-qPCR canonical junction panel assay, Target C mRNA
- Assay type: cell-based
- study-conditions: Table 4, read-out: Target C IC50 (decrease in CJ mRNA levels)
- Experimental: Compounds described herein were used to modulate RNA transcript abundance in cells. The expression of a target mRNA was measured by detecting the formation of an exon-exon junction in the canonical transcript (CJ). A compound mediated exon-inclusion event was detected by observing an increase in formation of a new junction with an alternative exon (AJ). Real-time qPCR assays were used to detect these splicing switches and interrogate the potency of various compounds towards different target genes. […]
pIC50: −log10 of the molar value.
measured-attribute: pIC50

Some compounds with known pIC50 results, for comparison:
[[record]]
compound = "Cc1cn2cc(-c3ncc4cc(N5C[C@H](C)NC6(CC6)C5)ccc4n3)cc(F)c2n1 (single isomer, unassigned)"
measured_attribute = "pIC50"
reading = "< 5.00"

[[record]]
compound = "CC(=O)c1nc(-c2cc3cn(C)nc3c(F)c2O)nc2ccc(N3C[C@@H](C)N[C@@H](C)C3)cc12"
measured_attribute = "pIC50"
reading = "6.00 to 7.00"

[[record]]
compound = "Cn1cc2cc(-c3ccc4nc(N5CC[C@H](NC(C)(C)C)C5)ccc4n3)c(O)c(F)c2n1 (single isomer, unassigned)"
measured_attribute = "pIC50"
reading = "> 7.00"

[[record]]
compound = "COc1cc(-c2ccc3nc(N4CCC(NC(C)(C)C)C4)ncc3n2)cnn1 (stereo not shown)"
measured_attribute = "pIC50"
reading = "5.00 to 6.00"

[[record]]
compound = "Cc1c(O)c(-c2cc(C(C)O)c3nc(N4CCNCC4)ccc3n2)cc2cn(C)nc12 (stereo not shown)"
measured_attribute = "pIC50"
reading = "< 5.00"


Entry Cc1nc2c(C)c(O)c(-c3ccc4nc(N5CC[C@@H](N[C@H]6C[C@H](F)C6)C5)ccc4n3)cc2o1 (single isomer, unassigned) : reported pIC50 = ?
> 7.00

For Cc1nc2c(C)c(O)c(-c3ccc4nc(N5CC[C@@H](NC(C)C)C5)ncc4n3)cc2o1 then?
> 7.00

For Cc1nc2cc(O)c(-c3ccc4nc(N5CC[C@@H](N[C@H]6C[C@@H](F)C6)C5)ccc4n3)cc2o1 (stereo in doubt) then?
5.00 to 6.00

For Cc1nc2cc(O)c(-c3ccc4nc(N5CCC(NC(C)(C)C)C5)ccc4n3)cc2n1C (stereo not shown) then?
6.00 to 7.00

For Cc1nc2c(C)c(O)c(-c3ccc4nc(N5CC[C@H](NC(C)(C)C)C5)ncc4n3)cc2o1 then?
6.00 to 7.00

For Cn1cc2cc(-c3ccc4nc(N5CC[C@@H](N[C@H]6C[C@@H](F)C6)C5)ccc4n3)c(O)cc2n1 (single isomer, unassigned) then?
> 7.00

For Cc1nc2c(C)c(O)c(-c3ccc4nc(N5CC[C@H](N[C@H]6C[C@@H](F)C6)C5)ccc4n3)cc2o1 (stereo in doubt) then?
> 7.00

For Cc1nc(-c2cc3cn(C)nc3c(C)c2O)nc2ccc(N3CCNC4(CC4)C3)cc12 then?
< 5.00

* * *

- System: HTT mRNA
- assay: RT-qPCR splicing assay, HTT mRNA canonical (CJ) and alternative (AJ) junction
- Type: cell-based, human
- study-conditions: Homo sapiens, HTT canonical junction mRNA, RT-qPCR; read-out: HTT CJ (decrease in CJ mRNA levels, IC50)
pIC50: −log10 of the molar value.
measured-attribute: pIC50

Some molecules with known pIC50 results, for comparison:
[[record]]
molecule = "Cn1cc2cc(-c3ccc4nc(N5CCC(NC6(C)CC6)C5)ccc4n3)c(O)cc2n1 (centres unmarked)"
measured_attribute = "pIC50"
reading = "> 7.00"

[[record]]
molecule = "Cc1nc2c(C)c(O)c(-c3ccc4nc(N5CCC(NC(C)C)C5)ccc4n3)cc2o1 (centres unmarked)"
measured_attribute = "pIC50"
reading = "> 7.00"

[[record]]
molecule = "Cc1nc2c(C)c(O)c(-c3ccc4nc(N5CC[C@@H](NC(C)C)C5)ccc4n3)cc2o1 (single isomer, unassigned)"
measured_attribute = "pIC50"
reading = "> 7.00"

[[record]]
molecule = "CNC(=O)c1nc(-c2cc3cn(C)nc3c(C)c2O)nc2ccc(N3CCNC4(CC4)C3)cc12"
measured_attribute = "pIC50"
reading = "6.00 to 7.00"

[[record]]
molecule = "Cc1cn2nc(-c3ccc4nc(N5CCC(NC(C)(C)C)C5)ccc4n3)c(O)c2c(C)n1 (centres unmarked)"
measured_attribute = "pIC50"
reading = "> 7.00"


Entry Cc1nc2c(C)c(O)c(-c3ccc4nc(N5CC[C@@H](NC(C)C)C5)ncc4n3)cc2o1 : reported pIC50 = ?
> 7.00

For Cn1cc2cc(-c3ccc4nc(N5CCNC6(CC6)C5)ccc4n3)c(O)cc2n1 then?
5.00 to 6.00

For Cc1nc2cc(O)c(-c3ccc4nc(N5CCC(N)C5)ccc4n3)cc2o1 (centres unmarked) then?
6.00 to 7.00
